FYI, the data here is from BindingDB's records for patent US20240092761.

biological target: Cyclin-dependent kinase 4/G1/S-specific cyclin-D1 (Homo sapiens, UniProt P11802); assay: CDK4/Cyclin D1 Mobility Shift Assay (MSA)
Sequence (P11802 whole entry): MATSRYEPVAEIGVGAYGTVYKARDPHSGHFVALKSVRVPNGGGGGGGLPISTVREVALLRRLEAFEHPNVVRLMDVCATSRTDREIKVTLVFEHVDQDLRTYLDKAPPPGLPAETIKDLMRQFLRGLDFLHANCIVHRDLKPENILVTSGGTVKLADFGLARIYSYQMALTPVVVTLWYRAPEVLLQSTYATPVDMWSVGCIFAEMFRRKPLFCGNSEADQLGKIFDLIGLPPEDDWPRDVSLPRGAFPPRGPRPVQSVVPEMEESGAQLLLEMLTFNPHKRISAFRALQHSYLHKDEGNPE
Sequence (P24385 whole entry, further chain): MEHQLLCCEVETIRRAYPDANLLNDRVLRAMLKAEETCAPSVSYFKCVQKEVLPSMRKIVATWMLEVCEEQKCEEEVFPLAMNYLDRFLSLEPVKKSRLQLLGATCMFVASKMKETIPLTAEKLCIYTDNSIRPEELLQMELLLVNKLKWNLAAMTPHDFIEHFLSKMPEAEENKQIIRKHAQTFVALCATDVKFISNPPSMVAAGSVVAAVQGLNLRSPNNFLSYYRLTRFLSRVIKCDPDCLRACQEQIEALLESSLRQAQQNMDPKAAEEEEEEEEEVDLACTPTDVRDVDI
pIC50: −log10 of the molar value.
MEASUREMENT LABEL: pIC50

What does the data say about its pIC50? Entry: CS(=O)(=O)N1CCC(Nc2ncc3cccc(N4CCC(N5CCC5)C4)c3n2)CC1 (stereo unspecified) [US20240092761, Compound 32]
6.30 to 6.70
